# target.of.assay: T1, human MSLN protein endogenously expressed on OVCAR3 tumor cells (human, UniProt Q13421 296-598)
# T1 construct: whole, on cells; Endogenous target on OVCAR3 cells; kept apart from the recombinant full-length construct; also called mesothelin
# measurement.notes: FACS on OVCAR3 cells
reported.property: Maximum mean fluorescence intensity
Give only the figure.

INSERT INTO measurements (binder, readout_number) VALUES
  ('S009-F6-62.5 (antibody, human IgG1, kappa, V domains shown, human-murine chimeric antibody, human IgG1/kappa constant regions) VH: QVQLQQPGTELVKPGASVKLSCRASGYTFTAYWMHWVKQRPGQGLEWIGNINPSNGGTDFNEKFKSKATLTVDKSSSTAYMQLSSLTSEDSAVYYCARGRGYFDVWGTGTTVTVSS VL: DILLTQSPAILSVSPGERVSFSCRASKNIGTSIHWYQQRTNGSPRLLIKYASESISGIPSRFSGSGSGTDFTLNINSVESEDIADYYCQQSNSWPTLTFGAGTKLELKR', 2600),
  ('S009-F5-9.16 (antibody, human IgG1, kappa, V domains shown, human-murine chimeric antibody, human IgG1/kappa constant regions) VH: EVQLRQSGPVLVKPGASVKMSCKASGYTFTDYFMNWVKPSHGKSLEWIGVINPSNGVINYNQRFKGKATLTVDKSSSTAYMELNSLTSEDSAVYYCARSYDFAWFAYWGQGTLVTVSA VL: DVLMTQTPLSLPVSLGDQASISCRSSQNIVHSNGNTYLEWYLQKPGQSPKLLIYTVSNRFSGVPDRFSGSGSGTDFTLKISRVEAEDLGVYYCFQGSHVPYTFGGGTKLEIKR', 3510);

**Q:** // lookup Maximum mean fluorescence intensity for S009-F4-94.15 (antibody, human IgG1, kappa, V domains shown, human-murine chimeric antibody, human IgG1/kappa constant regions) VH: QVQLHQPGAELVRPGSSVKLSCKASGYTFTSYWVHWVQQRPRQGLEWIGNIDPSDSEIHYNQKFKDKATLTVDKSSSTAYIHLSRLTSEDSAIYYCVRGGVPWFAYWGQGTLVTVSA VL: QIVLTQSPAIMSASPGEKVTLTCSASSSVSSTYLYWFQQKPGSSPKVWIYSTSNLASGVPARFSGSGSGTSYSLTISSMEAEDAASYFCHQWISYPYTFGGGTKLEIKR
**A:** 7060

All values here come from patent US20250250357A1.
